- System: CD2F1 mice, L1210 leukemia ip, survival T/C
- Method Notes: NCI In Vivo Anticancer Drug Screen. Data for tumor model L1210 Leukemia (intraperitoneal) in CD2F1 (CDF1) mice
- Run Parameters: endpoint: mean survival time; dose: 150.0 mg/kg/injection; schedule: Q01DX001 (ip); vehicle: saline; higher = longer survival
Inconclusive results and toxic doses are left out.
Attribute Measured: T/C

Some compounds with recorded T/C:
INSERT INTO assay_data (mol_smiles, result) VALUES
  ('CCCCCCCCCCCCCCNCCC(=O)O', '106 % of control'),
  ('COc1ccc(CCN)cc1O', '98 % of control'),
  ('Cn1cccc1-c1cccnc1', '100 % of control');

(Q) Could you share which T/C value was measured for `O=C(Nc1ccccc1[N+](=O)[O-])c1ccc(C(=O)Nc2ccccc2[N+](=O)[O-])cc1` ?
(A) 96 % of control

(Q) Could you share which T/C value was measured for `OCCN(CCO)c1ccc(O)cc1` ?
(A) 101 % of control

* * *

- Test system: CD2F1 mice, L1210 leukemia ip, survival T/C
- Method Notes: NCI In Vivo Anticancer Drug Screen. Data for tumor model L1210 Leukemia (intraperitoneal) in CD2F1 (CDF1) mice
- Run Parameters: endpoint: mean survival time; dose: 25.0 mg/kg/injection; schedule: Q04DX003 (ip); vehicle: saline with Tween-80
Toxic doses and inconclusive results are not listed. Rule for the calls: active = survival T/C of 150% or more; inactive = T/C below 125% in these data.
Tick one outcome: class 1 for active, class 0 for inactive

Solved cases below.
INSERT INTO results (compound, class) VALUES
  ('CS(=O)(=O)CC#N', 'class 0'),
  ('Cn1ccn(C2CCCCC2)c1=O', 'class 0'),
  ('O=C1C(Sc2ccc3ccccc3c2)=C(Sc2ccc3ccccc3c2)C(=O)c2ccccc21', 'class 0'),
  ('CCOC(=O)C([NH-])CC[NH-].[Cl][Pt+2][Cl] (stereo unspecified)', 'class 1'),
  ('O=C1C=CC(=O)C2CC=CCC12 (stereo unspecified)', 'class 0');

(Q) Could you check what this test reported for `O=C(O)c1cc[c]([Hg][S]c2ncnc3nc[nH]c23)cc1` ?
(A) class 0

* * *

- Tested on: CD2F1 mice, L1210 leukemia ip, survival T/C
- Method Notes: NCI In Vivo Anticancer Drug Screen. Data for tumor model L1210 Leukemia (intraperitoneal) in CD2F1 (CDF1) mice
- Run Parameters: endpoint: mean survival time; dose: 400.0 mg/kg/injection; schedule: Q01DX001 (ip); vehicle: saline with Tween-80; higher = longer survival
Toxic doses and inconclusive results are not listed.
We begin with a simple list: items and their reported T/C.

Some molecules with recorded T/C:
INSERT INTO results (molecule, experimental_target, result) VALUES
  ('COC(=O)C1C2C=CC(CC2)C1C(=O)OC (stereo not drawn)', 'CD2F1 mice, L1210 leukemia ip, survival T/C', '103 % of control'),
  ('CCC1(C)CCC2(C)C(CCC3C(C)(CO)CCCC32O)C1 (stereo not drawn)', 'CD2F1 mice, L1210 leukemia ip, survival T/C', '98 % of control'),
  ('c1ccc2c(c1)-c1nc3ccccc3cc1CC21CCCC1', 'CD2F1 mice, L1210 leukemia ip, survival T/C', '93 % of control'),
  ('Cc1nc(N)[nH]c(=O)c1-n1nnc2ccccc2c1=O', 'CD2F1 mice, L1210 leukemia ip, survival T/C', '89 % of control'),
  ('COCC1OC(OC)C(OC(=O)c2ccccc2)C(OC(=O)c2ccccc2)C1OC (stereo not drawn)', 'CD2F1 mice, L1210 leukemia ip, survival T/C', '90 % of control'),
  ('CC(C)(C)C1CCC(OC(=O)C(=O)O)CC1 (stereo not drawn)', 'CD2F1 mice, L1210 leukemia ip, survival T/C', '95 % of control');

(Q) Could you share which T/C value was measured for CC(C)C1=CC2=CCC3C(C)(C(=O)O)CCCC3(C)C2CC1 (stereo not drawn) ?
(A) 102 % of control

(Q) Could you share which T/C value was measured for `O=C(NCCCl)Nc1cccc(Cl)c1` ?
(A) 90 % of control

(Q) Could you share which T/C value was measured for `O=Nc1c(O)sc2ccccc12` ?
(A) 95 % of control

(Q) Could you share which T/C value was measured for `O=C1OC(=O)c2c1ccc1c(O)cccc21` ?
(A) 108 % of control

(Q) Could you share which T/C value was measured for `O=C1/C(=C/c2ccccc2)CCSc2ccccc21` ?
(A) 90 % of control

(Q) Could you share which T/C value was measured for `COc1cc(/C=C2\NC(=O)NC2=O)ccc1O` ?
(A) 90 % of control

(Q) Could you share which T/C value was measured for CC1CCC(O)C2(C)CC(O)C(C(C)C(=O)O)CC12 (stereo not drawn) ?
(A) 88 % of control

(Q) Could you share which T/C value was measured for `Cn1nnc(-c2nn[nH]n2)n1` ?
(A) 94 % of control

(Q) Could you share which T/C value was measured for `O=[N+]([O-])/C(=C/C=C/c1ccccc1)c1ccccc1` ?
(A) 91 % of control

(Q) Could you share which T/C value was measured for S=C(Nc1ccccn1)NC1CC2C=CC1C2 (stereo not drawn) ?
(A) 108 % of control

(Q) Could you share which T/C value was measured for CCOC(=O)CCC(C#N)(CC(=O)OCC)C(=O)OCC (stereo not drawn) ?
(A) 104 % of control

(Q) Could you share which T/C value was measured for `O=c1cc(-c2ccccc2)[nH]c(-c2ccccc2)c1` ?
(A) 89 % of control

(Q) Could you share which T/C value was measured for `Nc1ccc(C(=O)Nc2ccc(OCc3nc(N)nc(N)c3-c3ccc(Cl)cc3)cc2)cc1` ?
(A) 95 % of control

(Q) Could you share which T/C value was measured for O=C(O)CCC1CC(=O)OC12CCCCC2 (stereo not drawn) ?
(A) 91 % of control

(Q) Could you share which T/C value was measured for `O=C(NC(=S)Nc1cccc2ccccc12)c1cccc(Br)c1` ?
(A) 95 % of control
